- SUBJECT OF TEST: ΔF508 CFTR (Homo sapiens, UniProt P13569, DEL508-508)
- Construct: expressed in transfected cells; host or cells: FRT epithelial cells (Fischer rat thyroid)
- Sequence (P13569 with tags, fused parts or gaps DEL508-508): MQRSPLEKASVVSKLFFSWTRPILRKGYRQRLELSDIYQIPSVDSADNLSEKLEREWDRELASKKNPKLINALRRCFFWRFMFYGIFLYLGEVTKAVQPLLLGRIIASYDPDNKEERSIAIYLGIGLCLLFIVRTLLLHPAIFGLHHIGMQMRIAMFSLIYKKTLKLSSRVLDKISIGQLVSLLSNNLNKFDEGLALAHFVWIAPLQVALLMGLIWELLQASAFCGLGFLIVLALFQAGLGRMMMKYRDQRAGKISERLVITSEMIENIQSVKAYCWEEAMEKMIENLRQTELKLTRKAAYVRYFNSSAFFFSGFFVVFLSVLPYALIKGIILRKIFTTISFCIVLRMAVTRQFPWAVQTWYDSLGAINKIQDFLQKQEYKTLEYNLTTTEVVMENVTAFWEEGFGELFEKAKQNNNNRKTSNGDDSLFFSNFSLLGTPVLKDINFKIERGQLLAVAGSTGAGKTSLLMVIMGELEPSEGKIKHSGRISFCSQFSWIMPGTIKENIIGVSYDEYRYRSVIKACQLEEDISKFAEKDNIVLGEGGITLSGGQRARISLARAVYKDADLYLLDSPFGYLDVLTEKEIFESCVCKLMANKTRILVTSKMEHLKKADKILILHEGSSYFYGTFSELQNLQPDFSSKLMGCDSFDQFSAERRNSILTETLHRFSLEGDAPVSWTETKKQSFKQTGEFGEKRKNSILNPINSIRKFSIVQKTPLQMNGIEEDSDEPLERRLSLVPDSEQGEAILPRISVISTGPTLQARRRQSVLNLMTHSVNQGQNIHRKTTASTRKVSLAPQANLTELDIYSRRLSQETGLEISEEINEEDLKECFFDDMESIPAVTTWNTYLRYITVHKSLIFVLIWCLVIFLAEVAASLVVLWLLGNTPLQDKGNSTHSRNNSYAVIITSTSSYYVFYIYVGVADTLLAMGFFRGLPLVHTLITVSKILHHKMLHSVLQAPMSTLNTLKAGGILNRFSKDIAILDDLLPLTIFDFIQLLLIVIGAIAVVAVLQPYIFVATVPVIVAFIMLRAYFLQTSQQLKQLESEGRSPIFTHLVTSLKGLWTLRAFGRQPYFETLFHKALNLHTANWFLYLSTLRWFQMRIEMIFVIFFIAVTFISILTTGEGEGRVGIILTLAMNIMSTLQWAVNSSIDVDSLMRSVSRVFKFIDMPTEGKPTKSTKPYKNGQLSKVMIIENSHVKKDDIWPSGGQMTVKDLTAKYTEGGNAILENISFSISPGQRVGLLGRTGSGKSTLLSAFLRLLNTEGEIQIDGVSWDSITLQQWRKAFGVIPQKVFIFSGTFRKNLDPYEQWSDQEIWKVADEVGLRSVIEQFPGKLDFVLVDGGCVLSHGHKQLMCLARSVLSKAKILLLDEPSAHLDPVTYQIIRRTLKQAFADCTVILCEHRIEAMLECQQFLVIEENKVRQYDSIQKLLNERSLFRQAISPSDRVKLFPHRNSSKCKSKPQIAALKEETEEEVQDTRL
- ASSAY REMARKS: Dual corrector potentiator assay, potentiator mode: FRT cell Ussing chamber short circuit current, compound added to mucosal solution
- Type: cell-based
- MEASUREMENT CONDITIONS: * vehicle treated cells
- Protocol: FRT epithelial cell monolayers were grown on Snapwell filter inserts and optionally treated with a reference corrector N-(2-(5-chloro-2-methoxyphenylamino)-4′-methyl-4,5′-bithiazol-2′-yl)benzamide. The cells were exposed to a compound of the invention for 24 hours prior to the assay. […] Agonists were prepared as 200×-1000× concentrated solutions in HP-PS and 10CF-PS. […] Transepithelial resistance was monitored every 20 s with 10 mV voltage steps. […]
pEC50: −log10 of the molar value.
QUANTITY MEASURED: pEC50

INSERT INTO assay_data (input_smiles, subject_of_test, quantity_measured, result) VALUES
  ('C[C@H]1CC[C@@H](Nc2ncc(-c3ccc(OC(F)(F)F)cc3)cn2)CC1', 'ΔF508 CFTR (Homo sapiens, UniProt P13569, DEL508-508)', 'pEC50', '> 5.52');
